tested on: DMS 273 small cell lung; assay: NCI tumour cell line growth inhibition, 48 h
Overview of reported TGI across a group of molecules:

Past entries and their recorded results:
> print(dat)
                                   molecule              test.target  reported.metric  observed.result
1  O=C(O)CN1CCSc2ccccc2CN(CC(=O)O)CCSc2ccccc2C1  DMS 273 small cell lung              TGI         > 100 µM
2           CCN(CC)C(=O)CCn1ccc(=O)[nH]c1=O  DMS 273 small cell lung              TGI         > 100 µM
3  CC(=O)OCC1OC(N2C(=O)[C@@H](Oc3ccccc3)[C@H]2/C=C/c2ccccc2)C(OC(C)=O)C(OC(C)=O)C1OC(C)=O (stereo partly drawn)  DMS 273 small cell lung              TGI         > 100 µM
4  O=C1C2C3CC4C5C3C1C5C1(SCCS1)C42 (stereo not drawn)  DMS 273 small cell lung              TGI         > 100 µM
5  Cc1ccc(S(=O)c2ccccc2[N+](=O)[O-])cc1 (stereo not drawn)  DMS 273 small cell lung              TGI         > 100 µM
6  O=C1C(Cl)C(c2cccc([N+](=O)[O-])c2)N1n1cnc2ccccc2c1=O (stereo not drawn)  DMS 273 small cell lung              TGI         > 100 µM

Give its TGI value. Item: CC(=O)N1C/C(=C\c2ccccc2)C(=O)/C(=C/c2ccccc2)C1
12.1 µM

Give its TGI value. Item: COC(=O)C(=O)C(C#N)c1nc2ccccc2s1 (stereo not drawn)
> 100 µM

Give its TGI value. Item: O=C(Cc1ccccc1)NN1C(=O)C(Cl)C1c1ccc(Cl)cc1 (stereo not drawn)
> 100 µM

Give its TGI value. Item: O=P1(NCCCl)OCCCN1CCCl (stereo not drawn)
410 µM

Give its TGI value. Item: N/N=c1/nc2n(c3ncccc13)C=CNN2
> 100 µM

Give its TGI value. Item: Cc1c2cnccc2c(C)c2c1c1ccccc1n2CCOC(=O)c1ccccc1
18 µM

Give its TGI value. Item: CC1(OCc2ccccc2)C(=O)N2C1NCC2(C)C (stereo not drawn)
> 100 µM
